system: A. baumannii isolate AB 53; assay: Minimum inhibitory concentration (MIC), broth microdilution; type: cell-based, Acinetobacter baumannii; conditions: peptides 25 to 1.56 μM, 24 h at 37 °C, OD 405 nm, triplicates
No end group written: not given here.
Listed below: MIC values for each entry.
Provide only the numeric value, understood in µM.

- substance: "INWLKLGKAIIDAL-NH2 [Agelaia-MPI]"
  measurement.target: "A. baumannii isolate AB 53"
  reported: 3.12
- substance: "GILGKIWEGVKSLI-NH2 [NDBP-5.8]"
  measurement.target: "A. baumannii isolate AB 53"
  reported: 25
- substance: "FWSFLVKAASKILPSLIGGGDDNKSSS-NH2 [Con10]"
  measurement.target: "A. baumannii isolate AB 53"
  reported: 6.25

Now look at this entry.
In plain terms, INWLKLGKMVIDAL-NH2 [Polybia-MPII] has a documented MIC of 6.25

----------
system: A. baumannii isolate AB 02; assay: Minimum inhibitory concentration (MIC), broth microdilution; format: cell-based, Acinetobacter baumannii; conditions: peptides 25 to 1.56 μM, 24 h at 37 °C, OD 405 nm, triplicates
No end group written: not given here.
Property: MIC; scope: individual substances
The response must be a number in µM with no trailing unit.

- substance: "INWLKLGKMVIDAL-NH2 [Polybia-MPII]"
  MIC [µM]: 12.5
- substance: "INWLKLGKAIIDAL-NH2 [Agelaia-MPI]"
  MIC [µM]: 6.25
- substance: "FWSFLVKAASKILPSLIGGGDDNKSSS-NH2 [Con10]"
  MIC [µM]: 12.5

Here's the next entry for you.
For reference, reported MIC for GILGKIWEGVKSLI-NH2 [NDBP-5.8] stands at 25

Values compiled from paper PMC6520840.
